- assay_system: GPR84 (Homo sapiens (Human), UniProt Q9NQS5)
- Sequence (Q9NQS5 whole entry): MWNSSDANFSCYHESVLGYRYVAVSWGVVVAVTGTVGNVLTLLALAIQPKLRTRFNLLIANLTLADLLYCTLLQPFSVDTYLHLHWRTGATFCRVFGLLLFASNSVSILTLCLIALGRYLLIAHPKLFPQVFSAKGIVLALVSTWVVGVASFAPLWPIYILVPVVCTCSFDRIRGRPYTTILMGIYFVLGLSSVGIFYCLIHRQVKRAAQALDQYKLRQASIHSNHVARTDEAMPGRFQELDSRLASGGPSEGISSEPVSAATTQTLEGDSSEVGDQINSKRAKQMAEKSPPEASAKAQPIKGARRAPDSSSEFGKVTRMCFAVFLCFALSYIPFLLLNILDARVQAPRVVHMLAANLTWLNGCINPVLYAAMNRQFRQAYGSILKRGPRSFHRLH
- assay_comment: Gai biosensor BRET assay (GPR84-mediated activation of Gai, antagonist mode against agonist ZQ-16)
- Type: cell-based
- experimental_setup: compound tested at 25 μM (concentration code G)
Kindly supply the reported inhibition at 25 µM values for the records listed here.

# input What inhibition at 25 µM value was documented for this molecule, Cc1ccc(-c2ccc(-c3nc(OCC4COCCO4)cc(=O)n3C)cc2)cn1 (centres unmarked) [Compound I-47] ?
# output 25 to 50%

# input What inhibition at 25 µM value was documented for this molecule, [O-][n+]1cc(OCC2COCCO2)cc(-c2ccc(OCC(F)(F)F)cc2)c1 (centres unmarked) [Compound I-59] ?
# output 25 to 50%

# input What inhibition at 25 µM value was documented for this molecule, O=c1cc(OCC2COCCO2)cc(-n2ccc(OCC(F)(F)F)cc2=O)[nH]1 (centres unmarked) [Compound I-5] ?
# output < 25%

# input What inhibition at 25 µM value was documented for this molecule, Cc1ccc(-c2ccc(-c3nc(OCC4COCCO4)cc(=O)[nH]3)cc2)cn1 (centres unmarked) [Compound I-139] ?
# output < 25%

# input What inhibition at 25 µM value was documented for this molecule, COc1ccc(CN2CCN(c3cc(OCC4COCCO4)nc(=O)n3C)CC2)cc1 (centres unmarked) [Compound I-81] ?
# output < 25%

# input What inhibition at 25 µM value was documented for this molecule, Cc1ccc(N2CCN(c3cc(OCC4COCCO4)nc(=O)n3C)CC2)cn1 (centres unmarked) [Compound I-86] ?
# output < 25%

# input What inhibition at 25 µM value was documented for this molecule, COc1cc(OCC2COCCO2)cc(-c2c(C)cc(OCc3ccccn3)cc2C)n1 (centres unmarked) [Compound I-46] ?
# output 25 to 50%

# input What inhibition at 25 µM value was documented for this molecule, COc1cc(OCC2COCCO2)cc(-c2cc(-c3ccc(C)nc3)ccc2C)n1 (centres unmarked) [Compound I-95] ?
# output < 25%
